ASSAY_COMMENT: Plasma pharmacokinetics of lorlatinib at steady state (LC-MS/MS, non-compartmental analysis)
Type: in vivo, human
EXPERIMENTAL_SETUP: Cycle 1 Day 15, Cohort A2, 150 mg per dose; unit assumed
READOUT: Tlag (h)

                    structure_smiles_string  readout_value
0  C[C@H]1Oc2cc(cnc2N)-c2c(nn(C)c2C#N)CN(C)C(=O)c2ccc(F)cc21              0

====

ASSAY_COMMENT: Plasma pharmacokinetics of lorlatinib at steady state (LC-MS/MS, non-compartmental analysis)
Type: in vivo, human
EXPERIMENTAL_SETUP: human, plasma, oral, 150 mg, Cycle 1 Day 15; Cohort A2; 150 mg per dose; individual patients
READOUT: AUC(0-t) (ng·h/mL)

In [3]: df
Out[3]:
                    structure_smiles_string  endpoint_unit  readout_value
0  C[C@H]1Oc2cc(cnc2N)-c2c(nn(C)c2C#N)CN(C)C(=O)c2ccc(F)cc21        ng·h/mL           7380

====

ASSAY_COMMENT: Plasma pharmacokinetics of lorlatinib at steady state (LC-MS/MS, non-compartmental analysis)
Type: in vivo, human
EXPERIMENTAL_SETUP: Cycle 1 Day 1; Cohort A1; 75 mg/m2 per dose; individual patients; unit assumed
Description: Lorlatinib was isolated from human plasma by a liquid-iquid extraction procedure. […] A linear-log trapezoidal method was used [NT] A best-fit method was used to estimate terminal elimination and to extrapolate any plasma concentration versus time profiles to compute [NT].
READOUT: Tlag (h)

                    structure_smiles_string  readout  endpoint_unit  readout_value
0  C[C@H]1Oc2cc(cnc2N)-c2c(nn(C)c2C#N)CN(C)C(=O)c2ccc(F)cc21     Tlag              h              0

====

ASSAY_COMMENT: Plasma pharmacokinetics of lorlatinib at steady state (LC-MS/MS, non-compartmental analysis)
Type: in vivo, human
EXPERIMENTAL_SETUP: Cycle 1 Day 1; Cohort A1; 75 mg/m2 per dose; individual patients
Text: Lorlatinib was isolated from human plasma by a liquid-iquid extraction procedure. […] A linear-log trapezoidal method was used [NT] A best-fit method was used to estimate terminal elimination and to extrapolate any plasma concentration versus time profiles to compute [NT].
READOUT: Tlast

>>> df
                    structure_smiles_string  readout  readout_value
0  C[C@H]1Oc2cc(cnc2N)-c2c(nn(C)c2C#N)CN(C)C(=O)c2ccc(F)cc21    Tlast           24 h

====

ASSAY_COMMENT: Plasma pharmacokinetics of lorlatinib at steady state (LC-MS/MS, non-compartmental analysis)
Type: in vivo, human
EXPERIMENTAL_SETUP: human, in vivo, 115 mg/m2, Cycle 1 Day 15; patient N0773; Cohort B2; 115 mg/m2 per dose; Dose 75
Excerpt: Lorlatinib was isolated from human plasma by a liquid-iquid extraction procedure. […] A linear-log trapezoidal method was used [NT] A best-fit method was used to estimate terminal elimination and to extrapolate any plasma concentration versus time profiles to compute [NT].
READOUT: AUC(0-t) (µg·h/mL)

In [3]: df
Out[3]:
                                   compound   readout  readout_value
0  C[C@H]1Oc2cc(cnc2N)-c2c(nn(C)c2C#N)CN(C)C(=O)c2ccc(F)cc21 [Lorlatinib]  AUC(0-t)           5.37
